Provide the reported pIC50 of each item.
biological target: Cdk4/CyclinD1 (Homo sapiens (Human)); assay: Cdk4 kinase inhibition assay with recombinant Cdk4/CyclinD1, Rb substrate, [33P]-ATP filter plate; settings: 25 μM ATP, read-out: Cdk 4 IC50
pIC50 is defined as minus the log10 of a concentration measured in mol/L.

Query string: Fill blank: measured pIC50 of the compound OC1CCN(c2ccc(Nc3ncc4c5ccncc5n(C5CCCC5)c4n3)nn2)CC1 [Example 102] is ____.
Result string: 8.51

Query string: What about CN(C)C1CCN(c2ccc(Nc3ncc4c5ccncc5n([C@H]5CCC[C@@H]5O)c4n3)nc2)CC1 [Example 399] ?
Result string: 7.24

Query string: Now the same for C[C@H](O)Cn1c2cnccc2c2cnc(Nc3ccc(N4CCNC(C)(C)C4)nn3)nc21 [Example 413]
Result string: 7.48

Query string: Follow-up entry: CC[C@@H](C)n1c2cnccc2c2cnc(Nc3ccc(N4CCN[C@@H](C)C4)nn3)nc21 [Example 317]
Result string: 7.92

###

target: Cdk4/CyclinD1 (Homo sapiens (Human)); experiment: Cdk4 kinase inhibition assay with recombinant Cdk4/CyclinD1, Rb substrate, [33P]-ATP filter plate; conditions: 25 μM ATP, read-out: Cdk 4 IC50
Provide the reported pIC50 of each item.
Note: pIC50 values are expressed as the negative base-10 logarithm of concentration in M.

Query string: Endpoint output: pIC50 of "CNC1CCN(c2ccc(Nc3ncc4c5ccncc5n([C@H]5CCC[C@@H]5O)c4n3)nc2)CC1" . Value?
Result string: 6.52

Query string: Another molecule to look at: "CCN(CC)C1CCN(c2ccc(Nc3ncc4c5ccnc(O)c5n(C5CCCC5)c4n3)nc2)CC1"
Result string: 8.30

Query string: Next record, please: "CN1CCN(c2ccc(Nc3ncc4c5ccncc5n(C5CCCC5)c4n3)nn2)CC1"
Result string: 8.23

Query string: For "O=C(c1ccc(Nc2ncc3c4ccnc(F)c4n(C4CCCC4)c3n2)nc1)N1CCNCC1" then?
Result string: 8.22

Query string: Would you kindly repeat that for "CCC(C)(C)n1c2cnccc2c2cnc(Nc3ccc(N4CCC(N(C)C)CC4)nn3)nc21" ?
Result string: 8.15

Query string: Now give it for "O[C@H]1CCC[C@@H]1n1c2cnccc2c2cnc(Nc3ccc(N4CCNCC4)cn3)nc21" too.
Result string: 6.48

Query string: Also CCC1CN(c2ccc(Nc3ncc4c5ccncc5n(C5CCCC5)c4n3)nn2)CCN1 (centres unmarked) , if possible.
Result string: 8.37

Query string: Then "CN1CCN(c2ccc(Nc3ncc4c5cc[nH]c(=O)c5n(C5CCCC5)c4n3)nn2)CC1" ?
Result string: 7.54

###

So I've got a bunch of compounds here, and I need their IC50 values.
molecular target: Cdk4/CyclinD1 (Homo sapiens (Human)); experiment: Cdk4 kinase inhibition assay with recombinant Cdk4/CyclinD1, Rb substrate, [33P]-ATP filter plate; conditions: 25 μM ATP, read-out: Cdk 4 IC50
Please respond with the number in nM and leave the unit unwritten.

Query string: Need IC50, item C[C@@H](CO)n1c2cnccc2c2cnc(Nc3ccc(N4CC[C@@H](O)C4)nn3)nc21 [Example 374]
Result string: 86

Query string: Now give it for C[C@H]1CN(c2ccc(Nc3ncc4c5ccncc5n([C@@H](C)CO)c4n3)nn2)CCN1 [Example 377] too.
Result string: 73

Query string: Try the compound CC1CN(c2ccc(Nc3ncc4c5ccccc5n(C5CCCC5)c4n3)nc2)CC(C)N1 (stereo not shown) [Example 303]
Result string: 31

Query string: Okay, and C[C@H](O)Cn1c2cnccc2c2cnc(Nc3ccc(N4CCC(N(C)C)CC4)nn3)nc21 [Example 410] ?
Result string: 240

###

Target: Cdk4/CyclinD1 (Homo sapiens (Human), UniProt P11802)
Sequence (P11802 whole entry): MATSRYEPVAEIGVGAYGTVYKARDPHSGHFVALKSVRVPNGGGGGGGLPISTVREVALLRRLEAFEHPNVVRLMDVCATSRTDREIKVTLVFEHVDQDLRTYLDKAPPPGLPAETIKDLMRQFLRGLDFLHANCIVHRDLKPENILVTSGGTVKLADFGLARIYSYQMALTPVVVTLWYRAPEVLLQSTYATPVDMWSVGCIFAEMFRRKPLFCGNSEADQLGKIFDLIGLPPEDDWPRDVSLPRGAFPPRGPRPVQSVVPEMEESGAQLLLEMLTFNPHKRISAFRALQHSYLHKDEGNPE
Sequence (P24385 whole entry partner): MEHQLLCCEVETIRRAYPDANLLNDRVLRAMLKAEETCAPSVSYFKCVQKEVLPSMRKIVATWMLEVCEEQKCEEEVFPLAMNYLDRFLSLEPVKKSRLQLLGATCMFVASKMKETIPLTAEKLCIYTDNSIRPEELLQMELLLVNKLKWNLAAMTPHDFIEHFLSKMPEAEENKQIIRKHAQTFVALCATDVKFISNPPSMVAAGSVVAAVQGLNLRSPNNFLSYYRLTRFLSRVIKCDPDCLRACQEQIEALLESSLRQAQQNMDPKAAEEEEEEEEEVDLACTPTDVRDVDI
Test: Cdk4 kinase inhibition assay with recombinant Cdk4/CyclinD1, Rb substrate, [33P]-ATP filter plate
Conditions: 25 μM ATP, read-out: Cdk 4 IC50
Procedure: The Cdk4 and Cdk6 inhibitory activity of the compounds is measured with a kinase inhibition assay using recombinant Cdk4/CyclinD1 or Cdk6/CyclinD3 protein complexes. The protein substrate used in the assay is the retinoblastoma protein (Rb). […] The amount of the phosphorylated Rb is determined with a TopCount (PerkinElmer). The IC50 of a compound is determined by nonlinear regression curve fitting using software program Prism 5 (GraphPad Software).
Assay Metric: IC50 (nM)
Kindly answer with a numeric value in nM, unit omitted.

Query string: Given the entry CC1CN(c2ccc(Nc3ncc4c5ccncc5n(C5CCCC5)c4n3)nn2)CC(C)N1 (centres unmarked) [Example 113] , what IC50 was observed with Cdk4/CyclinD1 (Homo sapiens (Human), UniProt P11802)?
Result string: 4.2

Query string: How about CN(C)C1CCN(c2ccc(Nc3ncc4c5ccncc5n([C@@H]5CCOC5)c4n3)nn2)CC1 [Example 391] ?
Result string: 184

Query string: // repeat for CN(C)C1CCN(c2ccc(Nc3ncc4c5ccncc5n(C5CCC5)c4n3)nc2)CC1 [Example 341] and report
Result string: 21

Query string: Same read-out for C[C@@H](CO)n1c2cnccc2c2cnc(Nc3ccc(N4CCNCC4)cn3)nc21 [Example 369] ?
Result string: 45

Query string: // query: OCCCNc1ccc(Nc2ncc3c4ccncc4n(C4CCCC4)c3n2)nn1 [Example 297]
Result string: 1.4

Query string: For O=C(CO)N1CCN(c2ccc(Nc3ncc4c5ccncc5n(C5CCCC5)c4n3)nc2)CC1 [Example 151] then?
Result string: 3

Query string: Try this compound too: COc1nccc2c3cnc(Nc4ccc(N5CCNCC5)cn4)nc3n(C3CCCC3)c12 [Example 52]
Result string: 12

Query string: Lookup c1cc2c3cnc(Nc4ccc(NCC5CCNC5)cn4)nc3n(C3CCCC3)c2cn1 (centres unmarked) [Example 70]
Result string: 3.6

Query string: Similarly, CNCCN(C)C1CCN(c2ccc(Nc3ncc4c5ccncc5n(C5CCCC5)c4n3)nn2)CC1 [Example 443] ?
Result string: 4.8

Query string: Input Fc1nccc2c3cnc(Nc4ccc(OC5CCNCC5)nn4)nc3n(C3CCCC3)c12 [Example 269]
Result string: 35

Query string: Also c1cc2c3cnc(Nc4ccc(N5CCC(N6CCCC6)CC5)nn4)nc3n(C3CCCC3)c2cn1 [Example 437] ?
Result string: 23

Query string: Cool, now CC1(C)CN(c2ccc(Nc3ncc4c5ccncc5n(C5CCC5)c4n3)nn2)CCN1 [Example 348]
Result string: 17

Query string: Cool, now COC1CCN(c2ccc(Nc3ncc4c5ccncc5n(C5CCCC5)c4n3)nn2)C1 (centres unmarked) [Example 110]
Result string: 3.4

Query string: Same lookup for COC(=O)CNC1CCN(c2ccc(Nc3ncc4c5ccncc5n(C5CCCC5)c4n3)nn2)CC1 [Example 476] , please.
Result string: 1.7

Query string: Next compound: c1cc(-c2ccc(Nc3ncc4c5ccncc5n(C5CCCC5)c4n3)nn2)ccn1 [Example 259]
Result string: 49

Query string: Next compound up: CC(C)(O)CN1CCN(c2ccc(Nc3ncc4c5ccnc(F)c5n(C5CCCC5)c4n3)nc2)CC1 [Example 172]
Result string: 5.6

Query string: Also OC[C@@H](O)CNC1CCN(c2ccc(Nc3ncc4c5ccncc5n(C5CCCC5)c4n3)nn2)CC1 [Example 481] , if possible.
Result string: 8

###

biological target: Cdk6/CyclinD3 (Homo sapiens (Human), UniProt Q00534); assay: Cdk6 kinase inhibition assay with recombinant Cdk6/CyclinD3, Rb substrate, [33P]-ATP filter plate; details: 25 μM ATP, read-out: Cdk 6 IC50
Sequence (Q00534 whole entry): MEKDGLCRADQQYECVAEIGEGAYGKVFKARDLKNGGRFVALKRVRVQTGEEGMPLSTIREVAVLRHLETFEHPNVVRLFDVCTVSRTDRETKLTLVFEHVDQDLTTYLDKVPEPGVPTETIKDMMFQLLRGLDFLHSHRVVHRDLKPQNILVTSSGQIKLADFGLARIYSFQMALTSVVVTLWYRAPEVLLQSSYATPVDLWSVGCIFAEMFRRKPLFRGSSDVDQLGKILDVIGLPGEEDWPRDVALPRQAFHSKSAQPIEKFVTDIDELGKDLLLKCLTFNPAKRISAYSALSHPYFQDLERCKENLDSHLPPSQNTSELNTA
Sequence (P30281 whole entry partner): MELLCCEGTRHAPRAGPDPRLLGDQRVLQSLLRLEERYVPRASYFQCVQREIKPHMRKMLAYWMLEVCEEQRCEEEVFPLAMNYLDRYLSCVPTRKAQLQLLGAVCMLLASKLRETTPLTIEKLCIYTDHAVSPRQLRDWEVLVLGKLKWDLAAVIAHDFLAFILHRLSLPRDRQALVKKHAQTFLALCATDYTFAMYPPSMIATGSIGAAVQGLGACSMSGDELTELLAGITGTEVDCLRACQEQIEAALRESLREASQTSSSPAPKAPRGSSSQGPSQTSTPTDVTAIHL
Assay Metric: pIC50
// pIC50 here means minus log10 of the molar concentration (mol/L)

Query string: Entry "C[C@@H](C1CCCCC1)n1c2cnccc2c2cnc(Nc3ccc(N4CCNCC4)cn3)nc21" : reported pIC50 = ?
Result string: 8.24

Query string: For "c1cc2c3cnc(Nc4cnc(N5CCNCC5)nc4)nc3n(C3CCCC3)c2cn1" then?
Result string: 8.96

Query string: How about this compound: "CN(C)C1CCN(c2ccc(Nc3ncc4c5ccncc5n([C@H]5CCC[C@H]5O)c4n3)nc2)CC1"
Result string: 6.08

Query string: What do you have for "CN(C)C1CCN(c2ccc(Nc3ncc4c5ccncc5n([C@H]5CCC[C@H]5O)c4n3)nn2)CC1" ?
Result string: 6.56

Query string: How about "C[C@H](CO)NC1CCN(c2ccc(Nc3ncc4c5ccncc5n(C5CCCC5)c4n3)nn2)CC1" ?
Result string: 7.96

Query string: Record: "OC1CCN(Cc2ccc(Nc3ncc4c5ccncc5n(C5CCCC5)c4n3)nc2)CC1"
Result string: 8.09

Query string: Proceed to "OCC1CCN(c2ccc(Nc3ncc4c5ccnc(F)c5n(C5CCCC5)c4n3)nc2)CC1"
Result string: 8.55

Query string: Please answer likewise for "CC[C@@H](C)n1c2cnccc2c2cnc(Nc3ccc(N4CCNC(C)(C)C4)cn3)nc21"
Result string: 7.11

Query string: Same question, "O=C(O)CN1CCN(c2ccc(Nc3ncc4c5ccncc5n(C5CCCC5)c4n3)nn2)CC1" this time
Result string: 8.44

Query string: And "CCN(CCO)C1CCN(c2ccc(Nc3ncc4c5ccncc5n(C5CCCC5)c4n3)nn2)CC1" ?
Result string: 7.96

Query string: Proceed to "CN1CCN(c2ccc(Nc3ncc4c5ccccc5n(C5CCCC5)c4n3)nn2)CC1"
Result string: 7.66

Query string: Another compound: "N[C@@H]1CCN(c2ccc(Nc3ncc4c5ccncc5n(C5CCCC5)c4n3)nn2)C1"
Result string: 7.96

Query string: What do you have for "COC(=O)CNC1CCN(c2ccc(Nc3ncc4c5ccncc5n(C5CCCC5)c4n3)nn2)CC1" ?
Result string: 7.59

Query string: And for "CC(C)NC1CCN(c2ccc(Nc3ncc4c5ccncc5n(C5CCCC5)c4n3)nc2)CC1" ?
Result string: 7.70

Query string: Try this compound next: "c1cnc2c(c1)c1cnc(Nc3ccc(N4CCNCC4)cc3)nc1n2C1CCCC1"
Result string: 8.36

Query string: What do you get for "C[C@H]1CN(c2ccc(Nc3ncc4c5ccncc5n(CCCO)c4n3)nc2)CCN1" ?
Result string: 6.75

Query string: Next up: "c1cc2c3cnc(Nc4ccc(N5CCCNCC5)cn4)nc3n(C3CCCC3)c2cn1"
Result string: 8.25

Query string: Next entry: "N#Cc1nccc2c3cnc(Nc4ccc(N5CCNCC5)cn4)nc3n(C3CCCC3)c12"
Result string: 7.87

Query string: Cool, now "C[C@H](O)CNC1CCN(c2ccc(Nc3ncc4c5ccncc5n(C5CCCC5)c4n3)nn2)CC1"
Result string: 8.24

Query string: Also "CNC1CCN(c2ccc(Nc3ncc4c5ccncc5n(C5CCC5)c4n3)nc2)CC1" ?
Result string: 7.82

Query string: Quick one: "C[C@H](CO)NC1CCN(c2ccc(Nc3ncc4c5ccncc5n(C5CCCC5)c4n3)nc2)CC1"
Result string: 8.29

Query string: Also, "O[C@H]1CCN(C2CCN(c3ccc(Nc4ncc5c6ccncc6n(C6CCCC6)c5n4)nn3)CC2)C1" please.
Result string: 7.80

Query string: Then "CC(C)(C)n1c2cnccc2c2cnc(Nc3ccc(N4CCNCC4)cn3)nc21" ?
Result string: 8.15

Query string: Check "O[C@@H]1CCN(c2ccc(Nc3ncc4c5ccncc5n(C5CCC5)c4n3)nc2)C1" too.
Result string: 7.04

Query string: Ok, now "NC1CCN(c2ccc(Nc3ncc4c5ccccc5n(C5CCCC5)c4n3)nn2)CC1"
Result string: 8.10

Query string: Moving on to the next compound: "O[C@H]1CCN(C2CCN(c3ccc(Nc4ncc5c6ccncc6n(C6CCCC6)c5n4)nc3)CC2)C1"
Result string: 6.46

Query string: Moving on to the next compound: "CN(CCO)C1CCN(c2ccc(Nc3ncc4c5ccncc5n(C5CCCC5)c4n3)nn2)CC1"
Result string: 7.85

Query string: Now consider "CC[C@@H](C)n1c2cnccc2c2cnc(Nc3ccc(N4CCNC(C)(C)C4)nn3)nc21" and answer again.
Result string: 7.70

Query string: Further, for "c1cc2c3cnc(Nc4ccc(N[C@H]5CCNC5)cn4)nc3n(C3CCCC3)c2cn1" ?
Result string: 7.62

Query string: Also need "CN(C)CCN(C)C1CCN(c2ccc(Nc3ncc4c5ccncc5n(C5CCCC5)c4n3)nn2)CC1" , thanks.
Result string: 7.77

Query string: Param item: "c1cc2c3cnc(Nc4ccc(N5CCNCC5)nn4)nc3n(C3CCC3)c2cn1"
Result string: 7.80

Query string: Note, next up: c1cc2c3cnc(Nc4ccc(N5CCNCC5)cn4)nc3n(C3CC4CCC3C4)c2cn1 (centres unmarked)
Result string: 8.29
